Reference for the values: PubChem BioAssay

Task for the reader: assign each of the following molecules its reported composite z-score.
Target: Neurogenic locus notch homolog protein 2 (Homo sapiens) (UniProt Q04721)
Sequence (Q04721 whole entry, looked up): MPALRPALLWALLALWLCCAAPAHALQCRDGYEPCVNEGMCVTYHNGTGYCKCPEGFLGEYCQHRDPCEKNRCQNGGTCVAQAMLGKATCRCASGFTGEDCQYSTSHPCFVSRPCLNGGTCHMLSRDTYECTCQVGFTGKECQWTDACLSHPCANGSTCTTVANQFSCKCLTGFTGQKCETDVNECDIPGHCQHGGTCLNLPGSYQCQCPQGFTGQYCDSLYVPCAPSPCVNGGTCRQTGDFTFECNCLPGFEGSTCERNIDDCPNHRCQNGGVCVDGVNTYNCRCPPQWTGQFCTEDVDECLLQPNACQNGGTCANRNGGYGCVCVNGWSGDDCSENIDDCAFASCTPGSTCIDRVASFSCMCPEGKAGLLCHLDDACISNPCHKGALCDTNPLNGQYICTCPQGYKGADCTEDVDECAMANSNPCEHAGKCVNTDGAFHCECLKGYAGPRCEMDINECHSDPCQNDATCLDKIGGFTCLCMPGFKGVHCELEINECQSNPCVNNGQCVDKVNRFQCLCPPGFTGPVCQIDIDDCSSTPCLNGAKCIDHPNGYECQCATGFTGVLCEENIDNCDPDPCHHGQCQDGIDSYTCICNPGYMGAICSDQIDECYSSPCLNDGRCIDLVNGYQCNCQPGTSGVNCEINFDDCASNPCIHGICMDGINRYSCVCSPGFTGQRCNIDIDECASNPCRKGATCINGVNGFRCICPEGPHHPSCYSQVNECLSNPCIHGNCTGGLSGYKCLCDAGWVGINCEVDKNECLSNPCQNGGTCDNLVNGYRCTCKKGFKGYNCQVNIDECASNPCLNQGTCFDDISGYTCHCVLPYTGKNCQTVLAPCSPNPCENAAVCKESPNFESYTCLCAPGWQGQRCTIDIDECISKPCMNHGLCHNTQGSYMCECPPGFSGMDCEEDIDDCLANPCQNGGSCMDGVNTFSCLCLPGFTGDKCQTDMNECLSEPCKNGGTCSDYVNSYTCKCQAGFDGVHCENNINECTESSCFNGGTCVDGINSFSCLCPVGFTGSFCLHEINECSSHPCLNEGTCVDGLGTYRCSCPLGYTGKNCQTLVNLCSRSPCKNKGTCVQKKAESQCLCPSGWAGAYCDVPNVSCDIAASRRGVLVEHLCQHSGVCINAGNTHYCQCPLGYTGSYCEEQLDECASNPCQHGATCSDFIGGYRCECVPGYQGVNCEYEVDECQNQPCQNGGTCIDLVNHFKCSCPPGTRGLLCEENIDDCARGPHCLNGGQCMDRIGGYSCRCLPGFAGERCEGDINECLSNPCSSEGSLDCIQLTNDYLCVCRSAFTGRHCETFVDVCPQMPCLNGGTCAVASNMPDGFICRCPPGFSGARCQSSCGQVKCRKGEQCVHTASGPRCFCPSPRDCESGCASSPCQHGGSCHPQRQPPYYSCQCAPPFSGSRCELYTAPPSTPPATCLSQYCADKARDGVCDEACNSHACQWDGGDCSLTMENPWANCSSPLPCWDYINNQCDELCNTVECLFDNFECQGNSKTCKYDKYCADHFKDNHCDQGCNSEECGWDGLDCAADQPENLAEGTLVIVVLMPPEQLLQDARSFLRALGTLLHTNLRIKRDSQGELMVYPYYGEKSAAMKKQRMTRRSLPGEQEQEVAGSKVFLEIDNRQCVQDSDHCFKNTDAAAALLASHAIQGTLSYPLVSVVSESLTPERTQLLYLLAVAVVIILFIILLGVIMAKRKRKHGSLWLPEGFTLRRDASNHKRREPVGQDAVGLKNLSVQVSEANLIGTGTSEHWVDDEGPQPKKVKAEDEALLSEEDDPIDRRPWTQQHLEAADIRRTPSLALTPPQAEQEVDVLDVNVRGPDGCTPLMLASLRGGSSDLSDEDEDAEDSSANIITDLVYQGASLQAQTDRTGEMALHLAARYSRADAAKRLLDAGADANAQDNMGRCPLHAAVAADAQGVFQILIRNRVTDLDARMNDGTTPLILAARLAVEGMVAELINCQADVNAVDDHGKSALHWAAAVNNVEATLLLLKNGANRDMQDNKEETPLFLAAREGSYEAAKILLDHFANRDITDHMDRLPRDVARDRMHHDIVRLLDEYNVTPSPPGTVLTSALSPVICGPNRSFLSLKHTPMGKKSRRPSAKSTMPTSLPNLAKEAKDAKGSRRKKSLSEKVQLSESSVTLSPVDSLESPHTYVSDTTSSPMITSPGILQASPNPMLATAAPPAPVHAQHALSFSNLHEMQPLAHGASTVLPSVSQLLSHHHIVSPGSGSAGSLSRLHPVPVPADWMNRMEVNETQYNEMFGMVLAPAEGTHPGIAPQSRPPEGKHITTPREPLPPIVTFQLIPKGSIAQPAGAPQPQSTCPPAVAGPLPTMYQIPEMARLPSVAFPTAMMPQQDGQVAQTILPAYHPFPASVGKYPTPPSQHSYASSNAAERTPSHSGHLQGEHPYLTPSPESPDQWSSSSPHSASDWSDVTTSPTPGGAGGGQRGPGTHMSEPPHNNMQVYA
Test: Notch2 binders on small-molecule microarrays, primary screen, biochemical, small-molecule microarray, 635 nm fluorescence, stem cell growth factors (AID 1073)
Details: Notch2 binding, higher = more signal

Solved entries:
• COc1ccc(C#Cc2ccc3c(c2)[C@]2(C(=O)N3)[C@H](C(=O)NC[C@H](O)c3ccccc3)[C@H]3C(=O)O[C@H](c4ccccc4)[C@H](c4ccccc4)N3[C@@H]2c2ccccc2OCCO)cc1 = 1.29
• COc1ccc(CCN2C(=O)[C@@]3(Cc4ccccc42)c2ccccc2C(=O)N(Cc2ccccc2Cl)[C@H]3c2ccc(CO)cc2)cc1 = -0.13
• C=C(COC)C(=O)CC[C@H](OC(C)=O)c1cccc(OCCO)c1 = -0.844
• O=C1[C@]2(CO)C=C(Br)[C@@H](C[C@@H]2c2ccccc2)[C@@]12CO2 = 0.0861
• CC(C)N1CC=CC23O[C@@H]4C=CCOC(=O)[C@@H]4[C@H]2C(=O)N(CCO)[C@@H]3C1=O (stereo partly drawn) = -1.11

Please report composite z-score for every entry that follows.
1. CC(C)=CCCC(C)=CC(O)C1C=CC2C(=O)N(c3ccccc3)C(=O)C2N1Nc1ccccc1 (stereo not drawn)
2. Cc1cc(C)c(C(O)C2C=CC3C(=O)N(C)C(=O)C3N2Nc2ccccc2)c(C)c1 (stereo not drawn)
3. CC(=O)Nc1cc(Br)ccc1C(=O)O

1. 1.64
2. 1.64
3. 0.425

====

Assay: compound binding in COS7 lysate, probe aLAP1, primary screen, cell lysate, small-molecule microarray (AID 1124);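 also: lysate comes from COS7 cells expressing LAP1 and is applied at 0.3 µg/mL; score merges spot fluorescence near 667 nm with signal-to-noise over triplicate slides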
Settings: probe aLAP1, fluorescence, higher = more signal
Kindly state composite z-score for each of the entries shown.
Give bare numbers.

Hey, quick one: what's composite z-score for each of these?
1. O=C1c2ccccc2[C@@]2(Cc3ccccc3N(Cc3ccccc3)C2=O)[C@H](c2ccc(CO)cc2)N1C1CCCCC1
2. Cc1ccc(S[C@]2(C(=O)NCC(C)C)CC(=O)N(Cc3ccccc3)[C@@H]2c2ccc(CO)cc2I)cc1
3. COCC(=C=CC[C@H](O)c1ccc(OCCO)cc1)C[C@H](O)c1cc(Cl)cc(Cl)c1O
4. CC1CC/C=C\[C@H]2OC34C=CCN(Cc5ccccc5)C(=O)[C@H]3N(CCCCCO)C(=O)[C@@H]4C2C(=O)O1 (some centres undefined)

1: 0.432; 2: 0.888; 3: 0.359; 4: 1.4

====

Test: small-molecule microarray binders of probe aCHRDL2, primary screen, biochemical, biotinylated probe, 635/667 nm fluorescence (AID 1100)
Settings: higher = more signal
Consider the following molecules; for each one, report its composite z-score.
Give bare numbers.

* O=C1OCCC=C[C@H]2OC34C=CCN(Cc5ccccc5)C(=O)[C@H]3N(CCCCCCO)C(=O)[C@@H]4C12 (some centres undefined) | 0.33

Please give composite z-score, item by item, for the list that follows.
1. COc1ccc(C(=O)Nc2cccc(CN3C(=O)[C@@]4(O[C@@H](CCn5cc(CCO)nn5)[C@H]([Si](C)(C)c5ccc(OC)cc5)[C@H]4C)c4ccccc43)c2)cc1
2. COC(=O)[C@@]1(Cc2ccccc2)N=C(c2ccc(OCCCO)cc2)O[C@H]1c1ccccc1N=[N+]=[N-]
3. COCCOC(=O)N1C(=O)[C@@]2(c3cc(C#CCNC(N)=O)ccc31)[C@H](C(=O)N1CCN(c3ncccn3)CC1)[C@H]1C(=O)O[C@H](c3ccccc3)[C@H](c3ccccc3)N1[C@@H]2c1ccccc1OCCO
4. CC(C)N1C(=O)c2ccccc2[C@@H](C(=O)NCCCN(C)C)[C@@H]1c1ccc(CO)cc1
5. CC(C)C[C@@H]1NC(=O)[C@@H]2C[C@H](C(=O)NCCCCCC[N+](C)(C)C)[C@H](c3ccc(O)cc3)N2C1=O
6. COCCOC(=O)N1C(=O)[C@@]2(c3ccccc31)[C@H](c1ccc(O)cc1)N1[C@H](c3ccccc3)[C@H](c3ccccc3)OC(=O)[C@H]1[C@@H]2C(=O)N1CCc2cc(OC)c(OC)cc2C1
7. COC(=O)c1ccc(C(O)C2C=CC3C(=O)N(c4ccccc4)C(=O)C3N2Nc2ccc(C#N)cc2)o1 (centres undefined)

0.124
0.657
0.714
1.01
0.0989
0.404
0.669

I have 3 molecules here; please give me composite z-score for each one.
1. O=C1O[C@H](c2ccccc2)[C@H](c2ccccc2)N2[C@H]1[C@@H](C(=O)NC[C@H](O)c1ccccc1)[C@]1(C(=O)Nc3ccc(C#CCCO)cc31)[C@H]2c1ccc(O)cc1
2. COc1ccc(NN2C(C(O)c3ccc(OC)c(OCc4ccccc4)c3)C=CC3C(=O)N(C4CCCCC4)C(=O)C32)cc1 (centres undefined)
3. CCOC(=O)C[C@H]1[C@H](OC(=O)c2ccc(-c3ccccc3)cc2)[C@@H](NC(=O)c2ccc(-c3ccccc3)cc2)c2cc(OCCCO)ccc2N1C(=O)Cc1ccc(OC)cc1

1: 0.0258; 2: 0.627; 3: 0.45

Hello, I would appreciate it if you could give composite z-score for each entry below.
1. CCC(CC)C(O)C1C=CC2C(=O)N(c3ccccc3)C(=O)C2N1Nc1ccc(C#N)cc1 (centres undefined)
2. Cc1ccccc1C(O)C1C=CC2C(=O)N(C)C(=O)C2N1N1CCCCC1 (centres undefined)
3. COC(=O)[C@@]1(Cc2ccc(OC)cc2)[C@H]2c3cc(C(=O)N4CCCC4)n(Cc4ccccn4)c3C[C@H]2CN1C(=O)c1ccccc1

1: 0.705; 2: 0.906; 3: 1.3
